- targetSystem: Cytochrome P450 3A4 (Homo sapiens) (UniProt P08684)
- Sequence (P08684 whole entry, looked up): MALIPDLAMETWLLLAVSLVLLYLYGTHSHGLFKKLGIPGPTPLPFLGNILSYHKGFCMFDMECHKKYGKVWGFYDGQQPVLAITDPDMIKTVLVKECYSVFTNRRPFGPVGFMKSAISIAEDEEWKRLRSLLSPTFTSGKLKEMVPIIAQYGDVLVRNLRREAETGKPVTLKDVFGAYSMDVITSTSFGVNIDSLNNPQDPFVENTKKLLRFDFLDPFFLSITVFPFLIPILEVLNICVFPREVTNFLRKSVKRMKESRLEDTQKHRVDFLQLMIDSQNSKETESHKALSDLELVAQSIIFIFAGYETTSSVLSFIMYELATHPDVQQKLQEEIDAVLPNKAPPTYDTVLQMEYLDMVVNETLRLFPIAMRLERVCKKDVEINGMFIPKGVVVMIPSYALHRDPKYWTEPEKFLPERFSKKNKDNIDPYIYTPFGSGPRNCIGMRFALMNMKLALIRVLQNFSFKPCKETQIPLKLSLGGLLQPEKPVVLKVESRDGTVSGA
- assayText: Cytochrome panel assay with activity outcomes
- experimentalParameters: recombinant CYP, pro-luciferin dealkylation, luminescence, p450-cyp3a4; series mostly up to 57.1 µM
The campaign covered roughly 16,000 compounds. About 5,100 (32%) were called active. Roughly 25% stayed inconclusive and do not appear here. The call rests on the fitted dose curve; in most records, active means well fitted curve in the direction sought with a large enough effect; inconclusive means small, poorly fitted or top-dose-only effect, or effect the other way; inactive means no such curve, though single readings can be large or run the other way. The list shows a part of the results.
Mark one answer only. Choices: YES for active, NO for inactive

Check out these entries, answers already filled in.
molecule	categoryLabel
COc1cccc(/C=N/NC(=O)c2nc(-c3ccccc3)cc(-c3ccccc3)n2)c1	NO
Cc1c(C(=O)Nc2ccc(OCc3ccccc3)cc2)cccc1[N+](=O)[O-]	NO
CC(C)(C)C(=O)NC(=C(Cl)Cl)P(=O)(O)O	NO

Query: Record lookup: outcome of this test for Cc1ccccc1-c1nc(CS(=O)CC(=O)NCCCN(C)c2ccccc2)c(C)o1 (stereo not given) ?
Response: YES

Query: // next record Cc1ccc2nc(-c3ccccc3)cc(C(=O)NCCCn3ccnc3)c2c1
Response: YES

Query: Ok, now CN=c1nc(-c2ccccc2)n(-c2ccccc2)s1
Response: YES

Query: Here is the next molecule: Cc1ccccc1C(=O)NNC(=O)c1ccc(F)cc1
Response: NO

Query: What about O=S(=O)(/N=C(\Sc1ccccc1)c1ccccc1)c1ccc(Cl)cc1 ?
Response: NO

Query: Repeat for the following molecule: Cc1occc1C(=O)NNC(=O)c1ccc(F)cc1
Response: NO

Query: Could you do the same for CC(Oc1ccc(O)cc1)(P(=O)(O)O)P(=O)(O)O , please?
Response: NO

Query: Now this one: CC(=O)Nc1ccc(C(=O)NNC(=O)CCc2ccccc2)cc1
Response: NO

Query: Quick one: Cc1cc(=O)oc2cc(O)ccc12
Response: NO

Query: Item: CC(=O)Nc1ccc(NC(=O)c2ccccc2CC[N+](=O)[O-])cc1
Response: YES

Query: # iterate: CCN(CC)c1ccc2cc(C(C)=O)c(=O)oc2c1
Response: NO

Query: Now give it for NCCCC(=O)O too.
Response: NO

Query: And CCOc1cc(C)c(S(=O)(=O)Nc2ccc3cn[nH]c3c2)cc1C ?
Response: YES

Query: What do we get for COC(=O)c1sccc1-c1ccc(C(=O)Nc2cccnc2)o1 ?
Response: YES

Query: Lookup Cc1ccc(C(=O)NNC(=O)CSc2nnc3c(n2)[nH]c2ccc(F)cc23)cc1
Response: YES

Query: What do you have for Cc1cc(C=C(C#N)C#N)c(C)n1-c1ccccc1 ?
Response: NO

Query: Can you check Cn1c(SCc2nc3ccccc3n2CCO)nc2ccccc21 next?
Response: YES

Query: Also need Cc1c(NC(=O)C2CCN(S(=O)(=O)c3ccc(Cl)cc3)CC2)c(=O)n(-c2ccccc2)n1C , thanks.
Response: YES

Query: Note, next up: Cc1ccccc1-c1nc(CS(=O)CC(=O)NCCN2CCN(Cc3ccccc3)CC2)c(C)o1 (stereo not given)
Response: YES

Query: Also need CN(C)CCCNC(=O)CCc1nc2ccccc2c(=O)[nH]1 , thanks.
Response: NO

----------
- targetSystem: Cytochrome P450 3A4 (Homo sapiens) (UniProt P08684)
- assayText: Cytochrome panel assay with activity outcomes
- experimentalParameters: recombinant CYP, pro-luciferin dealkylation, luminescence, p450-cyp3a4; series mostly up to 57.1 µM
About 5,100 (32%) of roughly 16,000 compounds were called active. Not shown: some 25% with an inconclusive outcome. Calls come from the whole dose curve; as a rule, active = well fitted curve in the direction sought with a large enough effect; inconclusive = small, poorly fitted or top-dose-only effect, or effect the other way; inactive = no such curve, though single readings can be large or run the other way. Some of the results follow.
Permitted responses: YES for active, NO for inactive

Consider the worked cases shown below.
compound	categoryLabel
S=c1[nH]nc(CSCc2ccccc2Cl)n1-c1ccccc1	YES
CN1CCCC2(CCN(S(=O)(=O)c3ccccc3)CC2)C1	NO
O=C(OCc1ccc(Cl)cc1Cl)c1cccnc1Cl	NO
O=S1(=O)[C@H]([C@H]2CC3c4ccccc4C2c2ccccc23)[C@@H](N2CCCCC2)[C@@H]1c1ccccc1	YES
COC(=O)c1nnn(Cc2ccccc2)c1N	NO

Query: Can you look up the reported call for CN[C@@H](c1ccncc1)[C@@H](NC)c1ccncc1 for me?
Response: YES

Query: Param item: O=C1NC(c2cccc([N+](=O)[O-])c2)=CCN1c1ccccc1O
Response: NO

----------
- targetSystem: Cytochrome P450 3A4 (Homo sapiens) (UniProt P08684)
- assayText: Cytochrome panel assay with activity outcomes
- experimentalParameters: recombinant CYP, pro-luciferin dealkylation, luminescence, p450-cyp3a4; series mostly up to 57.1 µM
The campaign covered roughly 16,000 compounds. About 5,100 (32%) were called active. Roughly 25% stayed inconclusive and do not appear here. The call rests on the fitted dose curve; in most records, active means well fitted curve in the direction sought with a large enough effect; inconclusive means small, poorly fitted or top-dose-only effect, or effect the other way; inactive means no such curve, though single readings can be large or run the other way. Some of the results follow.
Permitted responses: TRUE (active), FALSE (inactive)

Answered examples (2):
molecule	categoryLabel
O=C(Nc1nccs1)C1Cc2ccccc2CN1S(=O)(=O)c1ccc(F)cc1 (configuration not stated)	TRUE
O=C(c1sc2ccccc2c1Cl)N1CCN(c2ccc(F)cc2)CC1	TRUE

Query: Answer briefly: the call reported for O=C(Nc1cccc2[nH]ncc12)c1ccc(F)cc1 in this assay.
Response: TRUE

Query: How about O=C(N[C@@H](c1ccccc1)[C@@H]1C[C@H]1C(=O)O)OCc1ccccc1 ?
Response: FALSE

Query: Next molecule up: COc1cc2c(cc1OC)CN(C(=S)Nc1ccccc1)CC2
Response: TRUE

Query: Input Cc1ccc2c(c1)nnn2C1CCN(S(=O)(=O)c2ccc(C(=O)N3C(C)CCCC3C)cc2)CC1 (configuration not stated)
Response: TRUE

Query: Now consider CCc1nnc(NC(=O)C2Cc3ccccc3CN2S(=O)(=O)c2ccc(C)cc2)s1 (configuration not stated) and answer again.
Response: TRUE

Query: // repeat for Cc1ccc2c(c1)nnn2C1CCN(CC(=O)N2c3ccccc3CC2C)CC1 (configuration not stated) and report
Response: TRUE

Query: And then Cc1ccc(S(=O)(=O)NC(CC(C)C)C(=O)Oc2ccc3c4c(c(=O)oc3c2)CCC4)cc1 (configuration not stated) , what is it?
Response: TRUE

Query: Repeat for the following molecule: CC(Cc1ccccc1)C(=O)NCc1ccccn1 (configuration not stated)
Response: FALSE

Query: Item: COc1cccc(C(=O)Nc2nc3c(s2)CN(C)CC3)c1
Response: FALSE

Query: What do you have for CCC(C)C(NS(=O)(=O)c1ccc(C)cc1)C(=O)Oc1ccc2c3c(c(=O)oc2c1)CCC3 (configuration not stated) ?
Response: TRUE

Query: Then what about the molecule C[C@@H](C(=O)NCc1ccccn1)[C@@H]1C[C@@]1(C)[C@@H](NC(=O)OCc1ccccc1)c1ccccc1 ?
Response: TRUE

Query: Lookup CCCOc1cc(N)ccc1C(=O)OCCN(CC)CC
Response: FALSE

Query: Proceed to CCN1CCC[C@H]1CNC(=O)c1c(OC)ccc(Br)c1OC
Response: FALSE

Query: Entry Cc1ccc2nc(Cc3ccc(N)cc3)[nH]c2c1 please
Response: TRUE

Query: What do you have for CS(=O)(=O)N1CCC[C@@]2(CCN(C(c3ccccc3)c3ccccc3)C2)C1 ?
Response: TRUE

Query: Another molecule to look at: CS(=O)(=O)N1CCC2(CCCN(C(c3ccccc3)c3ccccc3)C2)CC1
Response: TRUE

Query: Also, O=C(N[C@@H](c1ccccc1)[C@@H]1C[C@H]1C(=O)NCc1ccccn1)OCc1ccccc1 please.
Response: TRUE

Query: COc1c(F)c(F)c(C(=O)O)c(Nc2ccc(C)cc2)c1F ?
Response: FALSE

Query: Same question for COc1cccc(-c2cncnc2NCc2cccs2)c1 please.
Response: TRUE

Query: Next: O=C(Nc1ccccc1Cl)c1ccn[nH]1
Response: FALSE

----------
- targetSystem: Cytochrome P450 3A4 (Homo sapiens)
- assayText: Cytochrome panel assay with activity outcomes
- experimentalParameters: recombinant CYP, pro-luciferin dealkylation, luminescence, p450-cyp3a4; series mostly up to 57.1 µM
The campaign covered roughly 16,000 compounds. About 5,100 (32%) were called active. Roughly 25% stayed inconclusive and do not appear here. Calls follow the shape of the dose curve; as a rule, active = well fitted curve in the direction sought with a large enough effect; inconclusive = small, poorly fitted or top-dose-only effect, or effect the other way; inactive = no such curve, though single readings can be large or run the other way. The list shows a part of the results.
Can you answer with just one of these options? active, inactive

cpdSmiles	categoryLabel
N#Cc1cccc(NC(=O)N2CC[C@@]3(CCCN(C(=O)c4ccncc4)C3)C2)c1	active

Query: Field: outcome | Entry: COc1ccc(C(=O)N2CCC[C@@]3(CCN(C(=O)Nc4cccc(C#N)c4)C3)C2)cc1
Response: active

Query: Follow-up item: COc1ccc(C(=O)N2CCC3(CC2)CN(C(=O)Nc2cccc(C#N)c2)C3)cc1
Response: active

Query: Try this compound next: COCC(=O)N1CCC[C@@]2(CCN(C(=O)Nc3ccccc3)C2)C1
Response: inactive

Query: Again, but for COCC(=O)N1CCC2(CC1)CN(C(=O)Nc1cccc(C#N)c1)C2
Response: inactive

----------
- targetSystem: Cytochrome P450 3A4 (Homo sapiens) (UniProt P08684)
- assayText: Cytochrome panel assay with activity outcomes
- experimentalParameters: recombinant CYP, pro-luciferin dealkylation, luminescence, p450-cyp3a4; series mostly up to 57.1 µM
In all, about 16,000 compounds went through this assay and about 5,100 (32%) were called active. Inconclusive results (about 25%) are left out. The call rests on the fitted dose curve; in most records, active means well fitted curve in the direction sought with a large enough effect; inconclusive means small, poorly fitted or top-dose-only effect, or effect the other way; inactive means no such curve, though single readings can be large or run the other way. The list shows a part of the results.
Hi! Could you answer with just one of these? active, inactive

Observe how each entry below is paired with its result.
compound	categoryLabel
CC(C)C(NC(=O)C1CCCCC1)C(=O)NC1CCN(Cc2ccccc2)CC1 (configuration not stated)	inactive
Cc1cccc(Cn2ncc(Cl)c(Cl)c2=O)c1	active
COCCSc1nnc(NC(=O)C(C)(C)C)s1	inactive
O=C(CSc1nc2ccccc2c(=O)n1CCCC(=O)N1CCCC1)NCc1ccco1	active
COCC(C)n1c(C)cc(C(=O)CSc2nnc(Nc3ccccc3F)s2)c1C (configuration not stated)	active

Query compound follows.
Query: Identify the outcome logged in this assay for the compound shown: O=S(=O)(c1cnccc1N1CCN(CCO)CC1)N1CCCC1
Response: active
